# Protocol Details: qHTS Assay for Lipid Storage Modulators (AID 1519); also: % is scaled to controls: 0 for no effect and ±100 for the full control effect
# Particulars: Drosophila S3 cells, BODIPY lipid droplet/cell ratio, laser cytometry; at 57.5 µM (top of the series); cells loaded with oleic acid
Records with an inconclusive call do not appear. Numbered stars: 1 amine (or outer) side, 2 acyl side, 3 side chain; on linkers, the order of the positions; unused ones are H or OH. Bridge positions count the residues as written; N and C are the ends. Square brackets hold non-standard residues; d marks the D form. Peptide text beside a SMILES is read from it. * marks the point of attachment. ξ: configuration not given here. ΔAla(E,3-NHCONH2) = NC(=O)N/C=C(/N)C(=O)O; X1 = NC1=NCCC(C(N[*:1])C(=O)[*:2])N1; ξβ3hOrn = NCCCC(N)CC(=O)*; Dap = NC[CH](N)C(=O)O
Measured Parameter: activity change, negative = inhibition (%)
Numbers only, in %.

NCCC(=O)N[C@@H](Cc1cnc[nH]1)C(=O)O | -2.81
O=c1[nH]c(=O)n(C2CC(O)C(CO)O2)cc1F (stereo not given) | 3.4
C#C[C@@]1(O)CCC2C3CCC4=CC(=O)CCC4C3CC[C@@]21CC (stereo not given in full) | 8.95
CC(=O)O[C@@]1(C(C)=O)CCC2C3CC(C)C4=CC(=O)CC[C@@]4(C)C3CC[C@]21C (stereo not given in full) | -11.6
CC(=O)NC(CCC(=O)O)C(=O)O (stereo not given) | 11.4

Hey, can you go through the list below and give me activity change, negative = inhibition for every item?
1. CC1O[C@@H](Oc2c(-c3ccc(O)c(O)c3)oc3cc(O)cc(O)c3c2=O)C(O)C(O)C1O (stereo not given in full)
2. CC(=O)Oc1cc(-c2coc3cc(OC(C)=O)c(OC(C)=O)c(OC(C)=O)c3c2=O)cc(OC(C)=O)c1OC(C)=O
3. CC(C)C1COc2cc3oc(=O)ccc3cc2O1 (stereo not given)

[10.2, 13.7, 9.84]

Batch lookup, activity change, negative = inhibition per entry.
1. NCCCC(N)CC(=O)NCC1NC(=O)C(CO)NC(=O)C(N)CNC(=O)C(C2CCN=C(N)N2)NC(=O)/C(=C\NC(N)=O)NC1=O (stereo not drawn) (H-[Dap]S[Dap](ξβ3hOrn)[ΔAla(E,3-NHCONH2)][X1]; lactam 1-C; configuration not given here)
2. CC1=CC2C(C(C)C)CCC(C)(O)C2CC1 (stereo not given)
3. CC1OC(OCC2OC(Oc3c(-c4ccc(O)c(O)c4)oc4cc(O)cc(O)c4c3=O)C(O)C(O)C2O)C(O)C(O)C1O (stereo not given)
4. COC(=O)CCC(C)C1CCC2C3C(O)C[C@@H]4CC(O)CC[C@@]4(C)C3CC(O)[C@]12C (stereo not given in full)
5. OCC1OC(Oc2cccc3cccnc23)C(O)C(O)C1O (stereo not given)
6. CC[C@@]12CCCN3CCc4c(n(c5ccccc45)[C@](O)(C(=O)OC)C1)C32 (stereo not given in full)
7. COc1ccccc1-c1cc(=O)c2cccc(OC)c2o1
8. CC1=CCc2c(cc3oc(C)cc(=O)c3c2O)OC1

1: 2.39; 2: -0.741; 3: -1.77; 4: 2.8; 5: -4.73; 6: 6.08; 7: 6.98; 8: 15.7

Look at each compound and report its activity change, negative = inhibition.
1. COc1c(O)cc2c(c1O)C1OC(CO)C(O)[C@H](O)[C@H]1OC2=O (stereo not given in full)
2. C=CC1=C(C(=O)O)N2C(=O)C(NC(=O)/C(=N\O)c3csc(N)n3)C2SC1 (stereo not given)
3. COc1ccc(/C=C/c2cc(O)cc(O[C@H]3OC(CO)C(O)C(O)C3O)c2)cc1 (stereo not given in full)
4. C[C@@]12CCC3c4ccc(O)cc4CCC3C1CCC2O (stereo not given in full)
5. CC(=O)Oc1ccc2c(c1)CCC1C2CC[C@]2(C)C(=O)CCC12 (stereo not given in full)

1: 6.03; 2: 3.88; 3: 8.33; 4: -2.04; 5: -6.33

Please go through the list and note activity change, negative = inhibition for each compound.
1. C/C1=C/CC(C)(C)/C=C/C/C(C)=C/CC1
2. CC1(C)OC2CC3C4CCC5=CC(=O)C=C[C@@]5(C)[C@]4(F)C(O)C[C@@]3(C)[C@]2(C(=O)CO)O1 (stereo not given in full)
3. COc1ccc(-c2cc(=O)c3c(O)cc(O[C@H]4OC(COC5OC(C)C(O)C(O)[C@H]5O)C(O)C(O)C4O)cc3o2)cc1O (stereo not given in full)

0.556
-5.31
5.51

Hi! Can you tell me activity change, negative = inhibition for each of these compounds?
1. NC(=O)NCCC[C@H](N)C(=O)O
2. CCC(C)C(=O)O[C@H]1C[C@@H](C)C=C2C=C[C@H](C)[C@H](CC[C@@H]3C[C@@H](O)CC(=O)O3)C21 (stereo not given in full)

[-0.41, -9.81]

Give activity change, negative = inhibition for each listed item.
1. O=C(NC1CCCCC1)NC1CCCCC1
2. COc1ccc(-c2coc3cc(O)ccc3c2=O)c(OC)c1
3. CC(C)(N=NC(C)(C)C(=N)N)C(=N)N
4. COc1ccc(-c2coc3cc(OC(C)=O)cc(OC(C)=O)c3c2=O)cc1
5. C[C@@]12CCC(=O)C=C1C=CC1C2CC[C@]2(C)C1CC[C@@]21CCC(=O)O1 (stereo not given in full)
6. CC(=O)OC1CC2C(C)(C)C(=O)[C@@H]3OC3[C@@]2(C)C2CC[C@]3(C)C(=CC(=O)OC3c3ccoc3)[C@]12C (stereo not given in full)

1: 9.61; 2: -0.403; 3: 6.18; 4: -2.95; 5: 7.74; 6: 2.11

Give activity change, negative = inhibition for all compounds that follow.
1. CC(=O)OC1CC2C(C)(C)C=CC(=O)[C@@]2(C)C2CC[C@@]3(C)C(c4ccoc4)OC(=O)C4OC43[C@]12C (stereo not given in full)
2. CC(=O)OCC(=O)[C@@]1(O)CCC2C3CC(C)C4=CC(=O)C=CC4(C)C3C(O)CC21C (stereo not given in full)
3. CN1CCCC1c1cccnc1 (stereo not given)
4. CC(=O)OC[C@@]1(O)C[C@]23CCC4c5ccoc5CC[C@@]4(C)C2CCC1C3 (stereo not given in full)
5. CC(C)C1=CC2=CCC3[C@@](C)(CCC[C@@]3(C)C(=O)O)C2CC1 (stereo not given in full)
6. O=c1[nH]c(=O)c2nc(Br)n(C3OC(CO)C(O)C3O)c2[nH]1 (stereo not given)
7. CC1C2CCC3C4CC=C5CC(N(C)C)CC[C@@]5(C)C4CC[C@@]32CN1C (stereo not given in full)
8. CCCCC(=O)O[C@@]1(C(=O)CO)C(C)CC2C3CCC4=CC(=O)C=C[C@@]4(C)[C@]3(F)C(O)C[C@]21C (stereo not given in full)

5.35
2.16
7.69
6.91
4.85
6.72
6.04
-6.08
